target: SARS-CoV-2 native Spike (S) trimer (Acro Biosystems) (SARS-CoV-2), P0DTC2; experiment: ELISA on spike trimer; settings: remark: other sources report otherwise
Overview of recorded OD (450 nm) for various binders

Field: example entries. Status: answers known.
AB-009620 (antibody, V domains shown) VH: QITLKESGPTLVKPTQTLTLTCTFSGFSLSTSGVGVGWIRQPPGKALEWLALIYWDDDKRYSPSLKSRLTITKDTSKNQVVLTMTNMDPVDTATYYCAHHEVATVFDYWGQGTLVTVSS VL: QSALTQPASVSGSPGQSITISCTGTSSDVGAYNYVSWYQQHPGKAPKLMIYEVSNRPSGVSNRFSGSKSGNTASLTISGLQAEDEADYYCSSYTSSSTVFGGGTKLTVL
2.7 OD (450 nm)
AB-009346 (antibody, V domains shown) VH: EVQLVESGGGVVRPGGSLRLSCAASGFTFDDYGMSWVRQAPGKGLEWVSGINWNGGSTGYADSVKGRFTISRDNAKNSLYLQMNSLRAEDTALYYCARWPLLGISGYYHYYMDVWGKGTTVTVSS VL: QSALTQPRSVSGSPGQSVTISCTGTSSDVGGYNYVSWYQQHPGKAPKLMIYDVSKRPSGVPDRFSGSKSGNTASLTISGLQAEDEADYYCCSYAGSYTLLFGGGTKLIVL
2.55 OD (450 nm)

Turning to the following binder.
Item under review: AB-009281 (antibody, V domains shown) VH: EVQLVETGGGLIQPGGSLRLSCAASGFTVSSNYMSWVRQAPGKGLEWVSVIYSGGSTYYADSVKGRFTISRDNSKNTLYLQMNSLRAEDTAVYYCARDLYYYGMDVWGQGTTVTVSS VL: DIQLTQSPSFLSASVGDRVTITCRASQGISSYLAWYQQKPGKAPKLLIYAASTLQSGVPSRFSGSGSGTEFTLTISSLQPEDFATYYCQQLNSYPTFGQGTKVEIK . Reported OD (450 nm)?
2.6 OD (450 nm)
